test system: P388 leukemia ip, CD2F1 mice, survival T/C; assay: NCI In Vivo Anticancer Drug Screen. Data for tumor model P388 Leukemia (intraperitoneal) in CD2F1 (CDF1) mice; settings: endpoint: median survival time; dose: 15.0 mg/kg/injection; schedule: Q01DX005 (ip); vehicle: saline with Tween-80; higher = longer survival
Inconclusive results and toxic doses are left out.
readoutLabel: T/C

Here's what some known entries look like.
{"compound": "O=C(N/N=C/c1ccc(C(F)(F)F)cc1)c1ccncc1", "T/C": "106 % of control"}
{"compound": "N#CNc1c2ccccc2nc2ccccc12", "T/C": "101 % of control"}

q: Kindly state the measured T/C obtained for O=c1nc2sccn2c2ncccc12 with P388 leukemia ip, CD2F1 mice, survival T/C.
a: 88 % of control

q: Again, but for COc1ccc(C2=NN(C(C)=O)C(c3cc(OC)c(OC)cc3N)S2)cc1OC (stereo unspecified) (tested in a mixture with another compound)
a: 92 % of control

q: Again, but for CC(=O)O[C@H]1CC[C@@]2(C)C(CC[C@]3(C)C2CC=C2[C@@H]4CC(C)(C)CC[C@]4(C(=O)NCCN(C)C)CCC23C)C1(C)C (stereo partly specified)
a: 100 % of control

q: Again, but for COc1ccc(C(c2c(O)c3ccccc3oc2=O)c2c(O)c3ccccc3oc2=O)cc1
a: 98 % of control

The reported numbers originate from PubChem BioAssay AID330.
